Parameter log10 IC50: see the listing below.
ASSAYED_TARGET: EGFR (human) (UniProt P00533)
Sequence (P00533 whole entry, looked up): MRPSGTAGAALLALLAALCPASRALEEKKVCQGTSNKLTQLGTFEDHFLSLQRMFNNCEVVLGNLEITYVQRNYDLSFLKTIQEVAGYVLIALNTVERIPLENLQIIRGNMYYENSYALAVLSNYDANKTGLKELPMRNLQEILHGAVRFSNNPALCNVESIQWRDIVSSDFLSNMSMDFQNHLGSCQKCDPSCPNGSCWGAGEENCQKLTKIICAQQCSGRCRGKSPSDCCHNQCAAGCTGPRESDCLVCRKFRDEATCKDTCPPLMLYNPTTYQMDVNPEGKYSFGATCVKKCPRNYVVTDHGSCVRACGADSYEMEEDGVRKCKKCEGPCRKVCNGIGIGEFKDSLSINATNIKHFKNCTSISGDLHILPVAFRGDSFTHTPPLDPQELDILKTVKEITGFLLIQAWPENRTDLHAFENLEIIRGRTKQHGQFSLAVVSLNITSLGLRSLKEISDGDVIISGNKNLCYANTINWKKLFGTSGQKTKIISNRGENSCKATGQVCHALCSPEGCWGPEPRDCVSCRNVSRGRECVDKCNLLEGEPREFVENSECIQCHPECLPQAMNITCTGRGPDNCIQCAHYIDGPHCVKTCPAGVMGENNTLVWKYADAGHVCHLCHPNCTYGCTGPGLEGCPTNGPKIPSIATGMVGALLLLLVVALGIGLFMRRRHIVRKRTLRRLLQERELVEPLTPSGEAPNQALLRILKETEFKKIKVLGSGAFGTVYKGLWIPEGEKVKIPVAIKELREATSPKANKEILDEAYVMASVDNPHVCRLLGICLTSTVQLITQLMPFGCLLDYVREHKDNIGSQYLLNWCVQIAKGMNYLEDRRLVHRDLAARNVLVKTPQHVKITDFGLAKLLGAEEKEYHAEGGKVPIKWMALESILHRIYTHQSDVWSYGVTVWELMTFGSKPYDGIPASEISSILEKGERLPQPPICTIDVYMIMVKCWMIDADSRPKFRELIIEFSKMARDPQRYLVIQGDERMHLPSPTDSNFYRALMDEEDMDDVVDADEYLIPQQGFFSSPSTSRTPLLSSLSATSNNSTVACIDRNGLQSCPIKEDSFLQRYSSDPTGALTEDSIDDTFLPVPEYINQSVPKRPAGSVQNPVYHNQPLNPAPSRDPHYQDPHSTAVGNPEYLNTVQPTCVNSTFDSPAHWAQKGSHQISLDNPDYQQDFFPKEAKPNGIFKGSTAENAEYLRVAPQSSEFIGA
CONDITIONS_USED: A431
Recall that a logarithmic scale is used here: each number is log10 of IC50 in µM.

{"columns": ["SMILES_CODE", "ASSAYED_TARGET", "log10 IC50"],
 "data": [
  ["COc1cccc2ncnc(Nc3ccc(OCc4ccccc4)cc3)c12", "EGFR (human) (UniProt P00533)", 1.04],
  ["COc1cc2ncnc(Nc3ccc(OCc4ccccc4)cc3)c2cc1OC", "EGFR (human) (UniProt P00533)", 0.70],
  ["COc1ccc2ncnc(Nc3ccc(OCc4ccccc4)cc3)c2c1", "EGFR (human) (UniProt P00533)", 1.18],
  ["COc1cc2nccc(Nc3ccc(N4C(=O)c5ccc(Cl)cc5C4=O)c(C)c3)c2cc1OC", "EGFR (human) (UniProt P00533)", 1.70],
  ["COc1cc2ncnc(Nc3ccc(OCc4ccccc4)c(OC)c3)c2cc1OC", "EGFR (human) (UniProt P00533)", 0.20]
]}

Data point: `COc1cc2ncnc(Nc3ccc(Oc4ccccc4)cc3)c2cc1OC` ; log10 IC50 = 0.90

Looking up `COc1cc2ncnc(Nc3ccc(Nc4ccccc4)cc3)c2cc1OC` , I found its log10 IC50 recorded as 1.18

---

Recorded pIC50, one value per entry.
ASSAYED_TARGET: EGFR (human) (UniProt P00533)
CONDITIONS_USED: a431
Reminder that pIC50 is minus the log10 of a molar concentration.

{"columns": ["SMILES_CODE", "MEASUREMENT"],
 "data": [
  ["Clc1ccc2c(Nc3ccc(OCc4ccccc4)cc3)ncnc2c1", 4.30],
  ["COc1ccc2ncnc(Nc3ccc(OCc4ccccc4)cc3)c2c1", 4.92],
  ["c1ccc(Oc2ccc(Nc3ccnc4ccccc34)cc2)cc1", 4.51],
  ["COc1cc2ncnc(Nc3ccc(OCc4ccccc4)cc3)c2cc1OC", 4.30],
  ["Brc1ccc2ncnc(Nc3ccc(OCc4ccccc4)cc3)c2c1", 4.54],
  ["COc1cc2ncnc(Nc3ccc(OCc4ccccc4)c(OC)c3)c2cc1OC", 5.16],
  ["COc1cc2ncnc(Nc3ccc(Oc4ccccc4)cc3)c2cc1OC", 4.52],
  ["c1ccc(COc2cccc(Nc3ncnc4ccccc34)c2)cc1", 4.30]
]}

Moving on to the next molecule.
# molecule `COc1cccc2ncnc(Nc3ccc(OCc4ccccc4)cc3)c12` ; its pIC50 = 4.55

---

ASSAYED_TARGET: EGFR (human)
CONDITIONS_USED: A431
pIC50: −log10 of the molar value.
ENDPOINT: pIC50

{"columns": ["SMILES_CODE", "pIC50"],
 "data": [
  ["COc1ccc2c(Nc3ccc(OCc4ccccc4)cc3)ncnc2c1", 4.19],
  ["c1ccc(Oc2ccc(Nc3ccnc4ccccc34)cc2)cc1", "< 4.30"],
  ["Cc1cc2ncnc(Nc3ccc(OCc4ccccc4)cc3)c2cc1C", "< 4.52"]
]}

Reported pIC50 for `c1csc(COc2ccc(Nc3ncnc4ccccc34)cc2)c1` was < 4.30

pIC50 in this record for `Brc1ccc2ncnc(Nc3ccc(OCc4ccccc4)cc3)c2c1` : 5.00

`c1ccc(COc2ccc(Nc3ccnc4ccccc34)cc2)cc1` yielded pIC50 of < 4.30

According to the records, this molecule `COc1cc2nccc(Nc3ccc(OCc4ccccc4)cc3)c2cc1OC` displays pIC50 of < 4.30

Hello, the source for this data is the Kinase Knowledgebase extract (Sharma et al. 2016), in case you need it.
